- MEASURED TARGET: Adenosine receptor A3 (Homo sapiens, UniProt P0DMS8)
- Sequence (P0DMS8 whole entry): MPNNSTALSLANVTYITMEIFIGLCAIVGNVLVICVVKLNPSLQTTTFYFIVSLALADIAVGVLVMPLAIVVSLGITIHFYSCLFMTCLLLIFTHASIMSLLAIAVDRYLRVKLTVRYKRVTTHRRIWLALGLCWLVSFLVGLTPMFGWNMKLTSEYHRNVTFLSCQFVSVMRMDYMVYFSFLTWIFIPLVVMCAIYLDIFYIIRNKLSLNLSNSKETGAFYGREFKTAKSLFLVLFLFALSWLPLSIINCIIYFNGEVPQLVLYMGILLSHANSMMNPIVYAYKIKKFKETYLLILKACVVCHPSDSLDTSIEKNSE
- PROCEDURE SUMMARY: Displacement of [3H]PSB-11 from recombinant human adenosine A3 receptor expressed in CHO cell membranes after 45 mins by liquid scintillation counting method
pKi: −log10 of the molar value.
RECORDED METRIC: pKi

P. CCCn1c(=O)[nH]c2nc(-c3ccc(OCC(=O)NCCCCC4=C5C(C)=CC(C)=[N+]5[B-](F)(F)n5c(C)cc(C)c54)cc3)[nH]c2c1=O
Q. CCCn1c(=O)[nH]c2nc(-c3ccc(OCC(=O)NCCCCc4ccccc4)cc3)[nH]c2c1=O
Q: Decide: P or Q , by lowest recorded pKi. Pick one and reply with its label.
A: Q
(Q: 5.85, P: 6.14)

Origin of the recorded values: ChEMBL document CHEMBL4184319
